TARGET ENTITY: Nuclear receptor subfamily 1 group I member 2 (Homo sapiens)
ASSAY SUMMARY: Human pregnane X receptor (PXR) small molecule agonists, qHTS assay (AID 1346982); note: nearly all actives have a fitted effect of over 35% in size
DETAILS: PXR-Luc HepG2, CYP3A4 luciferase reporter, 24 h; series mostly up to 92.4 µM
Text: National Center for Advancing Translational Sciences [NCATS] NIH Chemical Genomics Center [NCGC] U.S. Environmental Protection Agency [EPA] National Institutes of Environmental Health Sciences [NIEHS] National Toxicology Program [NTP] The human pregnane X receptor (hPXR) regulates the expression of several drug metabolizing enzymes and induction of these proteins is a major mechanism for developing drug resistance in cancer. […]
Results filed as inconclusive are left out. Activity calls are given as the source filed them. Calls come from the whole dose curve; as a rule, active = well fitted activation curve with a large enough effect in the repeat runs; inconclusive = weak or mixed curves; inactive = no such curve, though single readings can be large or run the other way.
Give one outcome, nothing more. List: active, inactive

QUERY: In this assay, the call recorded for CC(=O)N1CCN(c2ccc(O)cc2)CC1 was what?
RESULT: inactive

QUERY: In this assay, the call recorded for NC(=O)NC(=O)Cc1ccccc1 was what?
RESULT: inactive

QUERY: In this assay, the call recorded for CO[Si](CCCCl)(OC)OC was what?
RESULT: inactive

QUERY: In this assay, the call recorded for CNC(=O)C(c1ccccc1)c1ccccc1 was what?
RESULT: inactive

QUERY: In this assay, the call recorded for CCOC(=O)CCCCCCCCC(=O)OCC was what?
RESULT: inactive

QUERY: In this assay, the call recorded for CC(=O)OC[C@H]1O[C@@H](OC(C)=O)[C@H](OC(C)=O)[C@@H]1OC(C)=O was what?
RESULT: inactive

QUERY: In this assay, the call recorded for CC(C)c1ccccc1O was what?
RESULT: inactive

QUERY: In this assay, the call recorded for CCC(C)N (stereo unspecified) was what?
RESULT: inactive

QUERY: In this assay, the call recorded for OC[C@@H](O)[C@H](O)[C@@H](O)[C@@H](O)CO was what?
RESULT: inactive

QUERY: In this assay, the call recorded for CCOC(=O)CC#N was what?
RESULT: inactive

QUERY: In this assay, the call recorded for CC(C)CCC(=O)CCC(C)C was what?
RESULT: inactive

QUERY: In this assay, the call recorded for CCCCCCCCCCCCCC(=O)OC was what?
RESULT: inactive

QUERY: In this assay, the call recorded for COc1cc(C=O)ccc1OC(=O)C(C)C was what?
RESULT: inactive

QUERY: In this assay, the call recorded for CC(=O)OC(C)(C)Cc1ccccc1 was what?
RESULT: inactive

QUERY: In this assay, the call recorded for C=CCOc1cc(Cl)ccc1C(=O)NCCN(CC)CC was what?
RESULT: inactive

QUERY: In this assay, the call recorded for FC(F)(F)/C(=N\OCC1OCCO1)c1ccc(Cl)cc1 was what?
RESULT: inactive

QUERY: In this assay, the call recorded for CCCCCCCCCCCCC was what?
RESULT: inactive

QUERY: In this assay, the call recorded for CCC(=O)OCCC(C)CCC=C(C)C (stereo unspecified) was what?
RESULT: inactive

QUERY: In this assay, the call recorded for Cn1c(=O)c2c(ncn2CC2OCCO2)n(C)c1=O was what?
RESULT: inactive

QUERY: In this assay, the call recorded for O=C(c1ccc2c(c1)C(=O)OC2=O)c1ccc2c(c1)C(=O)OC2=O was what?
RESULT: inactive

QUERY: In this assay, the call recorded for COc1ccc(/C=N/NC(=O)c2ccncc2)cc1OC was what?
RESULT: inactive

QUERY: In this assay, the call recorded for Nc1cc(S(=O)(=O)O)ccc1S(=O)(=O)O was what?
RESULT: inactive

QUERY: In this assay, the call recorded for C=C[C@@H](C)CCC=C(C)C was what?
RESULT: inactive

QUERY: In this assay, the call recorded for NC(=O)NNC(N)=O was what?
RESULT: inactive

QUERY: In this assay, the call recorded for O=CN1CCOCC1 was what?
RESULT: inactive

QUERY: In this assay, the call recorded for CC(C)COC(=O)CCCCC(=O)OCC(C)C was what?
RESULT: inactive

QUERY: In this assay, the call recorded for CO[Si](CCCS)(OC)OC was what?
RESULT: inactive

QUERY: In this assay, the call recorded for CC(Cl)COP(=O)(OCC(C)Cl)OCC(C)Cl (stereo unspecified) was what?
RESULT: active

QUERY: In this assay, the call recorded for C=C(C)C(=O)OC was what?
RESULT: inactive

QUERY: In this assay, the call recorded for CC(CC(=O)O)CC(C)(C)C (stereo unspecified) was what?
RESULT: inactive

QUERY: In this assay, the call recorded for CC(=O)Nc1ccc(C)cc1 was what?
RESULT: inactive

----------
ASSAY SUMMARY: qHTS assay for small molecule agonists of the p53 signaling pathway (AID 651631); note: nearly all actives have a fitted effect of over 15% in size
DETAILS: HCT-116 p53RE-bla reporter, beta-lactamase FRET ratio, 16 h; series mostly up to 73.3 µM
Results filed as inconclusive are left out. Activity calls are given as the source filed them. The call rests on the fitted dose curve.
MEASURED ATTRIBUTE: activation

Would you please look over these solved cases?
COMPOUND	activation
C=CCOCC(CO)(COCC=C)COCC=C	inactive
C=C(C)C(=O)OC	inactive
CC1(N)CCC(C(C)(C)N)CC1 (stereo not given)	inactive
CN(C)CCCNCCC#N	inactive
CCC1COC(=O)O1 (stereo not given)	inactive
CCCCOC(=O)[C@@H](C)Oc1ccc(Oc2ccc(C(F)(F)F)cn2)cc1	inactive

QUERY: Any idea what activation was measured for OCCCCCCCl ?
RESULT: inactive

QUERY: Any idea what activation was measured for Cc1nc(C)nc(N2C[C@@H](C)N(c3ccnc([C@@H](C)O)n3)[C@@H](C)C2)n1 ?
RESULT: inactive

QUERY: Any idea what activation was measured for COc1ccc(NS(=O)(=O)c2ccc(N)cc2)nn1 ?
RESULT: inactive

QUERY: Any idea what activation was measured for CCCCCCCCCOCC1CO1 (stereo not given) ?
RESULT: inactive

QUERY: Any idea what activation was measured for COc1cc([N+](=O)[O-])ccc1N ?
RESULT: inactive

QUERY: Any idea what activation was measured for C1=CCC(c2ccccc2)CC1 (stereo not given) ?
RESULT: inactive

----------
ASSAY SUMMARY: qHTS assay to identify small molecule antagonists of the thyroid receptor (TR) signaling pathway (AID 743065); note: nearly all actives have a fitted effect of over 55% in size
DETAILS: GH3.TRE-Luc, T3-stimulated luciferase inhibition, 23.5 h; series mostly up to 70.3 µM
Records with an inconclusive call do not appear. The source made the active and inactive calls. The call rests on the fitted dose curve; in most records, active means well fitted inhibition curve with a large enough effect in the repeat runs; inconclusive means weak or mixed curves; inactive means no such curve, though single readings can be large or run the other way.
Give one outcome, nothing more. List: active, inactive

QUERY: In this assay, the call recorded for Cc1ccc(S(=O)(=O)NC(=O)NC2CCCCCCC2)cc1 was what?
RESULT: inactive

QUERY: In this assay, the call recorded for C[C@H](CCC(=O)NCC(=O)O)[C@H]1CC[C@H]2[C@@H]3[C@H](O)C[C@@H]4C[C@H](O)CC[C@]4(C)[C@H]3C[C@H](O)[C@]12C was what?
RESULT: inactive

QUERY: In this assay, the call recorded for CN=C(NC#N)NCCSCc1csc(N=C(N)N)n1 was what?
RESULT: inactive

QUERY: In this assay, the call recorded for CC(C)(c1ccc(Oc2ccc3c(c2)C(=O)OC3=O)cc1)c1ccc(Oc2ccc3c(c2)C(=O)OC3=O)cc1 was what?
RESULT: inactive

QUERY: In this assay, the call recorded for CCCCCCCCCOCC1CO1 (stereo unspecified) was what?
RESULT: inactive

QUERY: In this assay, the call recorded for CC(=O)OCCCc1ccccc1 was what?
RESULT: inactive

QUERY: In this assay, the call recorded for O=C(O)c1c(Cl)ccc(Cl)c1Cl was what?
RESULT: inactive

QUERY: In this assay, the call recorded for CCOC(=O)CC(CC(=O)OCC)(OC(C)=O)C(=O)OCC was what?
RESULT: inactive

QUERY: In this assay, the call recorded for CCCCC(CC)C(=O)OC(C)C (stereo unspecified) was what?
RESULT: inactive

QUERY: In this assay, the call recorded for CC(C)=CC(C)(C)C was what?
RESULT: inactive

QUERY: In this assay, the call recorded for CC1(N)CCC(C(C)(C)N)CC1 (stereo unspecified) was what?
RESULT: inactive

QUERY: In this assay, the call recorded for CC(C)COC(=O)CCCCC(=O)OCC(C)C was what?
RESULT: inactive

QUERY: In this assay, the call recorded for CN(C)CCOCCN(C)CCO was what?
RESULT: inactive

QUERY: In this assay, the call recorded for CCC(=O)OCCC(C)CCC=C(C)C (stereo unspecified) was what?
RESULT: inactive

QUERY: In this assay, the call recorded for CCCCC(CC)COC(=O)c1ccccc1 (stereo unspecified) was what?
RESULT: inactive

QUERY: In this assay, the call recorded for CCC(C)(C)C1CCC(=O)CC1 was what?
RESULT: inactive

QUERY: In this assay, the call recorded for CCOC(=O)OCC/C(SC(=O)OCC)=C(\C)N(C=O)Cc1cnc(C)nc1N was what?
RESULT: inactive

QUERY: In this assay, the call recorded for O=C1OC(=O)c2cc(Oc3ccc4c(c3)C(=O)OC4=O)ccc21 was what?
RESULT: inactive

QUERY: In this assay, the call recorded for CC(C)SCc1ccco1 was what?
RESULT: inactive

QUERY: In this assay, the call recorded for Nc1ccc(/C=C/c2ccc(N)cc2S(=O)(=O)O)c(S(=O)(=O)O)c1 was what?
RESULT: inactive

QUERY: In this assay, the call recorded for CCCCCC1Nc2cc(C(F)(F)F)c(S(N)(=O)=O)cc2S(=O)(=O)N1 (stereo unspecified) was what?
RESULT: inactive

QUERY: In this assay, the call recorded for COc1cc2c(Nc3ccc(Br)cc3F)ncnc2cc1OCC1CCN(C)CC1 was what?
RESULT: active

QUERY: In this assay, the call recorded for CC(C)CCC(=O)CCC(C)C was what?
RESULT: inactive

QUERY: In this assay, the call recorded for CCCCOC(=O)C(=O)OCCCC was what?
RESULT: inactive

QUERY: In this assay, the call recorded for NS(=O)(=O)c1cc2c(cc1Cl)NC(C(Cl)Cl)NS2(=O)=O (stereo unspecified) was what?
RESULT: inactive

QUERY: In this assay, the call recorded for COc1cc(C=O)ccc1OC(=O)C(C)C was what?
RESULT: inactive
